Sourced from PubChem BioAssay (NCI)

Tested on: HOP-62 NSCLC
PROTOCOL_NOTES: NCI-60 one-dose screen, 48 h (100 = growth as untreated, 0 = no growth, -100 = all killed)
CONDITIONS: 10 µM unless noted
The panel holds about 83,000 compounds, 20% with a hit somewhere; the sample as a whole holds those more often.
ENDPOINT: growth (%)
Give the value in % but do not write % after it.

Give the reported value of growth for this record: NS(=O)(=O)c1ccc(-n2cc(-c3cccc(NC(=O)c4cc(C(F)(F)F)cc(C(F)(F)F)c4)c3)nn2)cc1
15

Complete the entry with growth for CC(C)CSc1nc(NCCc2c[nH]c3ccccc23)c(C#N)c(-c2ccccc2)n1
68.8

Recall and state the measured growth for CC12CC[C@@H]3[C@]4(C)COC(c5cn[nH]c5-c5ccc(Cl)cc5)O[C@@H]4CC[C@@]3(C)[C@@H]1CC(C1=CCOC1=O)O2 (stereo partly drawn) .
62.7

Return value of growth for input COc1ccc(-c2ccnc(SCc3cc4ccccc4[nH]c3=O)n2)cc1 , no commentary.
32.3

Specify reported growth for the compound shown: CC(=O)OC[C@@]1(C)C2CC[C@]3(C)C(CC=C4C5CC(C)(C)CC[C@]5(C(=O)Nc5cccc(C)c5)CC[C@]43C)[C@@]2(C)C[C@@H](OC(C)=O)[C@@H]1OC(C)=O (stereo partly drawn)
40.4

Input COc1cc(OC)cc(C(=O)Nc2cccc(-c3cn(-c4ccc(S(N)(=O)=O)cc4)nn3)c2)c1 , output reported growth.
6.62

Check the records and state growth for Cc1c(C(=O)NNC(=O)Nc2ccc(Cl)cc2)nnn1-c1ccc(Br)cc1
97.1

Give a short answer stating reported growth for CC1(C)CC[C@]2(C(=O)O)CC[C@]3(C)C(=CCC4[C@@]5(C)C[C@@H](O)[C@@H]6OC(c7ccco7)OC[C@@]6(C)C5CC[C@]43C)C2C1 (stereo partly drawn) .
43.1
